PROTOCOL DETAILS: Trial 000015 Part 2: pharmacokinetics after multiple intranasal administrations
Assay type: in vivo, human
PROTOCOL CONDITIONS: female, human, plasma, inhaled or intranasal, 50 ug, multiple i.n. doses every 3 hours, 50 μg, Dose No. 1; read-out: Cmax Median
*1 amine or outer side, *2 acyl side, *3 side chain or, on linkers, in order; H or OH if unused. Where a SMILES comes first, the peptide text is derived from it. Bridges are numbered along the chain shown (N, C = ends). [ ]: non-standard residue; d: D form. N(4-F-Bzl)Gly = O=C(O)CNCc1ccc(F)cc1; X1 = O=C(CCC[*:2])[*:1]
QUANTITY MEASURED: Cmax (ng/mL)
The response must be a number in ng/mL with no trailing unit.

Provide one value: measured Cmax of CC[C@H](C)[C@@H]1NC(=O)[C@H](Cc2ccc(O)cc2)NC(=O)CCCSC[C@@H](C(=O)N(CC(=O)N[C@@H](CC(C)C)C(=O)NCC(N)=O)Cc2ccc(F)cc2)NC(=O)[C@H](CC(N)=O)NC(=O)[C@H](CCC(N)=O)NC1=O [merotocin] (YIQNC[N(4-F-Bzl)Gly]LG-NH2; linker N-5 via X1)
0.0307

====

PROTOCOL DETAILS: Trial 000015 Part 3: pharmacokinetics, single intranasal and single intravenous cross-over
PROTOCOL CONDITIONS: female, human, plasma, iv, 20 ug, Vz Median, 20 μg i.v. infusion over 25 minutes, N = 6
*1 amine or outer side, *2 acyl side, *3 side chain or, on linkers, in order; H or OH if unused. Where a SMILES comes first, the peptide text is derived from it. Bridges are numbered along the chain shown (N, C = ends). [ ]: non-standard residue; d: D form. N(4-F-Bzl)Gly = O=C(O)CNCc1ccc(F)cc1; X1 = O=C(CCC[*:2])[*:1]
QUANTITY MEASURED: Vd (L)
All answers are understood in L, so give the number only.

Read off the recorded Vd for CC[C@H](C)[C@@H]1NC(=O)[C@H](Cc2ccc(O)cc2)NC(=O)CCCSC[C@@H](C(=O)N(CC(=O)N[C@@H](CC(C)C)C(=O)NCC(N)=O)Cc2ccc(F)cc2)NC(=O)[C@H](CC(N)=O)NC(=O)[C@H](CCC(N)=O)NC1=O [merotocin] (YIQNC[N(4-F-Bzl)Gly]LG-NH2; linker N-5 via X1)
31.2

====

PROTOCOL DETAILS: Trial 000015 Part 2: pharmacokinetics after multiple intranasal administrations
Assay type: in vivo, human
PROTOCOL CONDITIONS: female, human, plasma, inhaled or intranasal, 200 ug, multiple i.n. doses every 3 hours, 200 μg, Dose No. 2; read-out: t1/2 Harmonic mean (converted)
Text: The trial was divided into three parts: Part 2. Ascending multiple i.n. doses.
*1 amine or outer side, *2 acyl side, *3 side chain or, on linkers, in order; H or OH if unused. Where a SMILES comes first, the peptide text is derived from it. Bridges are numbered along the chain shown (N, C = ends). [ ]: non-standard residue; d: D form. N(4-F-Bzl)Gly = O=C(O)CNCc1ccc(F)cc1; X1 = O=C(CCC[*:2])[*:1]
QUANTITY MEASURED: half-life (min)
State the answer as a number, implicitly in min.

Output measured half-life for this item: CC[C@H](C)[C@@H]1NC(=O)[C@H](Cc2ccc(O)cc2)NC(=O)CCCSC[C@@H](C(=O)N(CC(=O)N[C@@H](CC(C)C)C(=O)NCC(N)=O)Cc2ccc(F)cc2)NC(=O)[C@H](CC(N)=O)NC(=O)[C@H](CCC(N)=O)NC1=O [merotocin] (YIQNC[N(4-F-Bzl)Gly]LG-NH2; linker N-5 via X1)
26.4

====

PROTOCOL DETAILS: Trial 000015 Part 3: pharmacokinetics, single intranasal and single intravenous cross-over
PROTOCOL CONDITIONS: female, human, plasma, inhaled or intranasal, 400 ug, t1/2 Median, cross-over, 400 μg i.n. single dose, N = 6
*1 amine or outer side, *2 acyl side, *3 side chain or, on linkers, in order; H or OH if unused. Where a SMILES comes first, the peptide text is derived from it. Bridges are numbered along the chain shown (N, C = ends). [ ]: non-standard residue; d: D form. N(4-F-Bzl)Gly = O=C(O)CNCc1ccc(F)cc1; X1 = O=C(CCC[*:2])[*:1]
QUANTITY MEASURED: half-life
Returns: string containing the numeric result and its unit.

Output half-life of CC[C@H](C)[C@@H]1NC(=O)[C@H](Cc2ccc(O)cc2)NC(=O)CCCSC[C@@H](C(=O)N(CC(=O)N[C@@H](CC(C)C)C(=O)NCC(N)=O)Cc2ccc(F)cc2)NC(=O)[C@H](CC(N)=O)NC(=O)[C@H](CCC(N)=O)NC1=O [merotocin] (YIQNC[N(4-F-Bzl)Gly]LG-NH2; linker N-5 via X1)
36.6 min

====

PROTOCOL DETAILS: Trial 000015 Part 1: pharmacokinetics after single intranasal administration
PROTOCOL CONDITIONS: female, human, plasma, inhaled or intranasal, 400 ug, AUCt Geom. mean (% CV), single i.n. dose 400 μg, N = 6
*1 amine or outer side, *2 acyl side, *3 side chain or, on linkers, in order; H or OH if unused. Where a SMILES comes first, the peptide text is derived from it. Bridges are numbered along the chain shown (N, C = ends). [ ]: non-standard residue; d: D form. N(4-F-Bzl)Gly = O=C(O)CNCc1ccc(F)cc1; X1 = O=C(CCC[*:2])[*:1]
QUANTITY MEASURED: AUC(0-t) (ng·h/mL)
Report the figure in ng·h/mL without appending any unit label.

Respond only with AUC(0-t) recorded for CC[C@H](C)[C@@H]1NC(=O)[C@H](Cc2ccc(O)cc2)NC(=O)CCCSC[C@@H](C(=O)N(CC(=O)N[C@@H](CC(C)C)C(=O)NCC(N)=O)Cc2ccc(F)cc2)NC(=O)[C@H](CC(N)=O)NC(=O)[C@H](CCC(N)=O)NC1=O [merotocin] (YIQNC[N(4-F-Bzl)Gly]LG-NH2; linker N-5 via X1)
0.0886

====

PROTOCOL DETAILS: clinical
PROTOCOL CONDITIONS: female, human, in vivo, inhaled or intranasal, 400 ug, t1/2 Harmonic mean
*1 amine or outer side, *2 acyl side, *3 side chain or, on linkers, in order; H or OH if unused. Where a SMILES comes first, the peptide text is derived from it. Bridges are numbered along the chain shown (N, C = ends). [ ]: non-standard residue; d: D form. N(4-F-Bzl)Gly = O=C(O)CNCc1ccc(F)cc1; X1 = O=C(CCC[*:2])[*:1]
QUANTITY MEASURED: half-life

Identify measured half-life associated with CC[C@H](C)[C@@H]1NC(=O)[C@H](Cc2ccc(O)cc2)NC(=O)CCCSC[C@@H](C(=O)N(CC(=O)N[C@@H](CC(C)C)C(=O)NCC(N)=O)Cc2ccc(F)cc2)NC(=O)[C@H](CC(N)=O)NC(=O)[C@H](CCC(N)=O)NC1=O [merotocin] (YIQNC[N(4-F-Bzl)Gly]LG-NH2; linker N-5 via X1)
33.6 min

====

PROTOCOL DETAILS: Trial 000015 Part 1: pharmacokinetics after single intranasal administration
PROTOCOL CONDITIONS: female, human, plasma, inhaled or intranasal, 300 ug, AUCt Median, single i.n. dose 300 μg, N = 6
*1 amine or outer side, *2 acyl side, *3 side chain or, on linkers, in order; H or OH if unused. Where a SMILES comes first, the peptide text is derived from it. Bridges are numbered along the chain shown (N, C = ends). [ ]: non-standard residue; d: D form. N(4-F-Bzl)Gly = O=C(O)CNCc1ccc(F)cc1; X1 = O=C(CCC[*:2])[*:1]
QUANTITY MEASURED: AUC(0-t) (ng·h/mL)
Please state the figure in ng·h/mL; there is no need to write the unit.

Answer with the recorded AUC(0-t) for the compound listed here: CC[C@H](C)[C@@H]1NC(=O)[C@H](Cc2ccc(O)cc2)NC(=O)CCCSC[C@@H](C(=O)N(CC(=O)N[C@@H](CC(C)C)C(=O)NCC(N)=O)Cc2ccc(F)cc2)NC(=O)[C@H](CC(N)=O)NC(=O)[C@H](CCC(N)=O)NC1=O [merotocin] (YIQNC[N(4-F-Bzl)Gly]LG-NH2; linker N-5 via X1)
0.0943

====

PROTOCOL DETAILS: Trial 000015 Part 2: pharmacokinetics after multiple intranasal administrations
Type: in vivo, human
PROTOCOL CONDITIONS: female, human, plasma, inhaled or intranasal, 200 ug, multiple i.n. doses every 3 hours, 200 μg, Dose No. 16; read-out: Cmax Geom. mean (% CV)
*1 amine or outer side, *2 acyl side, *3 side chain or, on linkers, in order; H or OH if unused. Where a SMILES comes first, the peptide text is derived from it. Bridges are numbered along the chain shown (N, C = ends). [ ]: non-standard residue; d: D form. N(4-F-Bzl)Gly = O=C(O)CNCc1ccc(F)cc1; X1 = O=C(CCC[*:2])[*:1]
QUANTITY MEASURED: Cmax

Check the records and state Cmax for CC[C@H](C)[C@@H]1NC(=O)[C@H](Cc2ccc(O)cc2)NC(=O)CCCSC[C@@H](C(=O)N(CC(=O)N[C@@H](CC(C)C)C(=O)NCC(N)=O)Cc2ccc(F)cc2)NC(=O)[C@H](CC(N)=O)NC(=O)[C@H](CCC(N)=O)NC1=O [merotocin] (YIQNC[N(4-F-Bzl)Gly]LG-NH2; linker N-5 via X1)
0.218 ng/mL
